targetDesc: GABAAR(α1/β3/γ2) (Homo sapiens, UniProt P14867+P18507+P28472)
experiment: Dissociation constant of PAM at fixed 10 μM GABA
Type: binding
Overview of reported Kd across a group of compounds:
Give the number; µM is assumed, so skip it.

Would you please look over these solved cases?
{"recordSmiles": "CCOC(=O)C1=C[C@]2(CC)CCCN3CCc4c(n1c1ccccc41)[C@@H]32", "Kd, µM": 1.4}
{"recordSmiles": "CC(C)(CO)Cc1cc(C(C)(C)C)c(O)c(C(C)(C)C)c1", "Kd, µM": 13.1}

Proceed to the following item.
Exercise: Find the recorded Kd belonging to `CC(C)c1cccc(C(C)C)c1O` and report it.
Solution: 5.6

====

targetDesc: GABAAR(α1/β3/γ2) (Homo sapiens, UniProt P14867+P18507+P28472)
Format: binding
endpointName: pKd
API: returns pKd as number; meaning -log10 of concentration in mol/L.

Exercise: Param item = `COc1ccc(-c2ccc(=N)n(CCCC(=O)O)n2)cc1` ; retrieve measured pKd.
Solution: 6.67

====

targetDesc: GABAAR(α1/β3/γ2) (Homo sapiens, UniProt P14867+P18507+P28472)
experiment: Ligand detection / high-throughput screening by fluorescence change ratio
Type: binding
measurementSetup: third and fourth screening, LOPAC1280, 10 μM
endpointName: assignment of hit compound from the screening

{"recordSmiles": "CC(C)(CO)Cc1cc(C(C)(C)C)c(O)c(C(C)(C)C)c1", "targetDesc": "GABAAR(α1/β3/γ2) (Homo sapiens, UniProt P14867+P18507+P28472)", "valueMeasured": "PAM candidates"}
{"recordSmiles": "CCOC(=O)C1=C[C@]2(CC)CCCN3CCc4c(n1c1ccccc41)[C@@H]32", "targetDesc": "GABAAR(α1/β3/γ2) (Homo sapiens, UniProt P14867+P18507+P28472)", "valueMeasured": "PAM candidates"}
{"recordSmiles": "CC1=C(C)C(=O)C(CCCCC#CCCCC#CCO)=C(C)C1=O", "targetDesc": "GABAAR(α1/β3/γ2) (Homo sapiens, UniProt P14867+P18507+P28472)", "valueMeasured": "PAM candidates"}

Entry source: paper PMC6764212
